- studyTarget: T1, human CLDN18.2 (human)
- T1 construct: also called huCLDN18.2; hCLDN18.2
- assayRemarks: flow cytometry titration, HEK293T cells overexpressing CLDN18.2
measuredMetric: EC50 (µg/mL)
A number alone suffices; assume µg/mL.

>>> reading("hCl1c (antibody, human IgG1, kappa, V domains shown, Humanized) VH: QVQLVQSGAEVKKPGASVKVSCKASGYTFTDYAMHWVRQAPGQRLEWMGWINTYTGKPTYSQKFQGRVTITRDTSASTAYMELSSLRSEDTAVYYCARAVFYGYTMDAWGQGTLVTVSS VL: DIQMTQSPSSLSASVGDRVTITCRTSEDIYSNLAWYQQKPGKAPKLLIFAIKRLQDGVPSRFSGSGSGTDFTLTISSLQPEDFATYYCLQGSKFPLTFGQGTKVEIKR")
0.753

*Q* Fill in: EC50 of hCl1i (antibody, human IgG1, kappa, V domains shown, Humanized) VH: QVQLVQSGAEVKKPGASVKVSCKASGYTFTDYAMYWVRQAPGQRLEWMGWINAYTGKPTYAQKFQGRVTITRDTSASTAYMELSSLRSEDTAVYYCARAVYYGYTMDAWGQGTLVTVSS VL: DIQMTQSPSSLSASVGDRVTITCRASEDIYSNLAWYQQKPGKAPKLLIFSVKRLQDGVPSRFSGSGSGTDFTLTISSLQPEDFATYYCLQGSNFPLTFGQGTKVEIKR is ___
*A* 0.444

Hello, the source for this data is patent US20240034783A1, in case you need it.
